Test system: Arthrobacter sp. BP2 chnB monooxygenase
Assay: chnB monooxygenase activity assay, NADPH oxidation at 340 nm, purified over-expressed enzyme
Assay type: biochemical
Details: 1.25 mM substrate, pH 7.5; ND = No Activity Detected
Measure: Specific Activity of Monooxygenase Enzymes Against Various Ketone Substrates, sp. BP2 chnB (µmol/min/mg)

- Compound: "CC1CCCCC1=O (stereo not shown)"
  System: "Arthrobacter sp. BP2 chnB monooxygenase"
  Value Measured: 4.205
- Compound: "O=C1CCCCC1=O"
  System: "Arthrobacter sp. BP2 chnB monooxygenase"
  Value Measured: 0.237
- Compound: "O=C1CCC(=O)CC1"
  System: "Arthrobacter sp. BP2 chnB monooxygenase"
  Value Measured: 3.994
- Compound: "C[S+](C)[O-] [dimethyl sulfoxide]"
  System: "Arthrobacter sp. BP2 chnB monooxygenase"
  Value Measured: 0.422
- Compound: "CC1CCCC1=O (stereo not shown)"
  System: "Arthrobacter sp. BP2 chnB monooxygenase"
  Value Measured: 3.514
- Compound: "O=C1CCCCCCCCCC1"
  System: "Arthrobacter sp. BP2 chnB monooxygenase"
  Value Measured: 0.064
- Compound: "O=C1CCCCCCC1"
  System: "Arthrobacter sp. BP2 chnB monooxygenase"
  Value Measured: 0.646
- Compound: "O=C1CCCCCC1"
  System: "Arthrobacter sp. BP2 chnB monooxygenase"
  Value Measured: 3.846
- Compound: "O=C1CCCCCCCCC1"
  System: "Arthrobacter sp. BP2 chnB monooxygenase"
  Value Measured: 0.166
- Compound: "O=C1C=C[C@H]2CO[C@@H]1O2"
  System: "Arthrobacter sp. BP2 chnB monooxygenase"
  Value Measured: 0.525
- Compound: "O=C1C=CCCC1"
  System: "Arthrobacter sp. BP2 chnB monooxygenase"
  Value Measured: 2.739
- Compound: "O=C1CCCCCCCCCCCC1"
  System: "Arthrobacter sp. BP2 chnB monooxygenase"
  Value Measured: 0.147
- Compound: "O=C1Cc2ccccc2N1"
  System: "Arthrobacter sp. BP2 chnB monooxygenase"
  Value Measured: 4.845
